Reported values of GI50 for individual entries
System: M14
assayNotes: NCI tumour cell line growth inhibition, 48 h
Calls of active or inactive are those of the source. Rule as the data show it: active = GI50 up to about 1.1 µM and inactive = higher.
attributeMeasured: GI50

| cpdSmiles | experimentalValue |
| --- | --- |
| COc1cc(Cl)c2c3c(c(C(=O)c4ccccc4)oc13)CCC2 | > 100 µM (inactive) |
| Cc1cc2c(cc1C)[n+]([O-])c(C(=O)/C=C/c1ccc3c(c1)OCO3)c(C)[n+]2[O-] | 98.9 µM (inactive) |
| Cc1cc2c(O)c(c1)CN(Cc1ccccc1)Cc1cc(C)cc(c1O)CN(Cc1ccccc1)Cc1cc(C)cc(c1O)CN(Cc1ccccc1)C2 | > 100 µM (inactive) |
